Test system: Plasmodium falciparum NF54
Experiment: growth inhibition relative to untreated control; higher = more inhibition
Details: 1 µM; MM + chorismate end-products (CM screening medium); 72 h
Give growth inhibition for every item shown.
Answers are plain numbers, in %.

# example entries with known answers
growth inhibition reading for Nc1cccnc1Nc1ccc(Cl)cc1 : 32

growth inhibition in this record for NCCCC(N)(C(=O)O)C(F)F (stereo unspecified) : 14

Short answer for Cc1ccccc1CN1CCC(O)(c2ccc(Cl)c(C(F)(F)F)c2)CC1 : growth inhibition was 51.6

What the record says about COc1cccc(-c2cc3c(Nc4cccnc4)nccc3[nH]2)c1 : growth inhibition is 91

***
Per the records, this compound ( CC[C@@H]([C@H](C)O)n1ncn(-c2ccc(N3CCN(c4ccc(OC[C@@H]5CO[C@@](Cn6cncn6)(c6ccc(F)cc6F)C5)cc4)CC3)cc2)c1=O ) has growth inhibition equal to 45.5

* * *

System: Plasmodium falciparum NF54
Assay: growth inhibition relative to untreated control; higher = more inhibition
Settings: 5 µM; MM + chorismate end-products (CM screening medium); 72 h
Binning rule for recorded growth inhibition: low band: < 60%; middle band: ≥ 60% and < 90%; high band: ≥ 90%

Please review the entries below; each comes with its answer.
Which bin should I file Nc1ncnc2c1c(Cc1cccc3ccccc13)nn2CC1CCNCC1 under?
low band

Input COc1ccc(C(=N)N)cc1-c1cn(-c2ccc(C(=N)N)cc2)nn1 ; output its category
low band

Which of the defined bands does the recorded growth inhibition of CCOc1ccc(OCC(=O)Nc2cc(C)cc(C)c2)cc1 sit within?
low band

Could you tell me which band C[C@H](C(N)=O)N1CCCC[C@@H]1c1ccc(OCc2cccc(F)c2)cc1 belongs to?
low band

# classify by growth inhibition band: CC(C)(C)C(=O)N(CCCCCCN1C[C@H](O)[C@@H](O)[C@H](O)[C@H]1CO)C1CCCCCC1
low band

---
Class (by measured growth inhibition) for O=C(C1CCN(c2nnnn2-c2ccccc2)CC1)N1CCc2ccccc2C1
low band

In plain terms, what class is CC(Oc1cccc(Cl)c1)C(=O)Nc1ccc2oc(-c3ccncc3)nc2c1 (stereo not drawn) ?
low band

Class label required: Cc1ccc(NC(=O)CC2COc3ccccc3O2)cc1Cl (stereo not drawn)
low band

* * *

Tested on: Plasmodium falciparum NF54
Assay: growth inhibition relative to untreated control; higher = more inhibition
Settings: 1 µM; MM + chorismate end-products (CM screening medium); 72 h
PROPERTY: growth inhibition (%)
Numbers only, in %.

Example cases with answers are listed next.
Note to self: growth inhibition of CS(=O)(=O)N1CCC(Cn2nc(Cc3cccc4ccccc34)c3c(N)ncnc32)CC1 with Plasmodium falciparum NF54 was 41.5

Measured growth inhibition for this entry O=C(NCCc1c[nH]c2ccccc12)c1cc2ccccc2oc1=O on Plasmodium falciparum NF54: 20.7

Please give growth inhibition for each item listed below.
1. CNC(=O)c1nn(C)c2c1C(C)(C)Cc1cnc(Nc3ccc(N4CCN(C)CC4)cc3)nc1-2
2. COc1cc(NC(C)CCCN)c2ncccc2c1 (stereo not given)
3. c1ccc(-c2[nH]c3ccccc3c2C(c2ccccn2)N2CCCC2)cc1 (stereo not given)

1: 64.5; 2: 51.1; 3: 3.66

* * *

System: Plasmodium falciparum NF54
Assay: growth inhibition relative to untreated control; higher = more inhibition
Details: 1 µM; MM + chorismate end-products (CM screening medium); 72 h
Provide the reported growth inhibition of each item.
Give bare numbers, in %.

// compound C[C@H]1c2cccc(O)c2C(=O)C2=C(O)[C@]3(O)C(=O)C(C(N)=O)=C(O)[C@@H](N(C)C)[C@@H]3[C@@H](O)[C@@H]21 , assay Plasmodium falciparum NF54, growth inhibition value: 50.6

The observed growth inhibition for N#Cc1nc(-c2ccccc2)oc1S(=O)(=O)c1ccc(Cl)cc1 when tested with Plasmodium falciparum NF54 stands at 43.4

Value sought: growth inhibition, system Plasmodium falciparum NF54, item O=C(NCc1cc(Cl)cc(Cl)c1)c1c(C(F)(F)F)nc2ccccn12 . Result: 2.45

Please report growth inhibition for every entry that follows.
1. CC(C(=O)N1CCCC1)N1CCN(S(=O)(=O)c2ccc(C(C)(C)C)cc2)CC1 (stereo not drawn)
2. CN1CCN(S(=O)(=O)c2ccc(-c3ccc4c(Nc5ncc(Cl)cn5)ccnc4c3)cc2)CC1
3. O=C(NC1CCN(c2ccnc3ccccc23)C1)c1cccc(C(F)(F)F)c1 (stereo not drawn)

1. 37.6
2. 96.5
3. 80.7

# return growth inhibition for each item in the list
1. O=C(C1CCN(c2cc(-n3cccc3)ncn2)CC1)N1CCc2ccccc2C1
2. COc1ccc(S(=O)(=O)Nc2ccc(CN3CCN(C(=O)c4cccc(C#N)c4)CC3)cc2)cc1

11.5
0.529

Dear colleague, could you please provide growth inhibition for the compounds listed below?
1. COc1cccn2c(C(=O)N3CCCCC3)c(C(F)(F)F)nc12
2. CN1CCN(S(=O)(=O)c2ccc(-c3ccc4c(Nc5ccc6nn[nH]c6c5)ccnc4c3)cc2)CC1

12.4
89.7

* * *

Test system: Plasmodium falciparum NF54
Assay: growth inhibition relative to untreated control; higher = more inhibition
Details: 5 µM; MM + chorismate end-products (CM screening medium); 72 h
Label fulfilled for high-side growth inhibition (at or above 90%) and not fulfilled for low-side growth inhibition (below it).

Examples from the recorded data:
// inclusive: growth inhibition at least 90%? input: Cc1cc(NCCc2ccccc2)nc(NC(=N)Nc2ccc(Cl)cc2)n1
not fulfilled

Hi, just wondering whether FC(F)(F)c1cnc(Sc2nnc(-c3ccncc3)o2)c(Cl)c1 shows growth inhibition of 90% or higher.
not fulfilled

API: above_or_equal(metric=growth inhibition, cutoff=90%) for item O=C(Nc1ccc2c(c1)B(O)OC2)c1ccccc1C(F)(F)F
not fulfilled

Does CCOC(=O)c1noc(N)c1-c1ccccc1 have a reported growth inhibition of at least 90%?
not fulfilled

Check if growth inhibition >= 90% (inclusive). Item: Nc1ncnc2c1ncn2[C@@H]1O[C@H](COS(=O)(=O)NC(=O)c2ccccc2O)[C@@H](O)[C@H]1O
not fulfilled

Is it the case that c1ccc(Oc2ccc(-c3cc(N4CCOCC4)[nH]n3)cc2)cc1 has growth inhibition reaching or exceeding 90%?
not fulfilled

For this compound, is measured growth inhibition 90% or higher? COC(=O)c1ccc(F)cc1NS(=O)(=O)c1cccc(-c2cnn(Cc3ccccc3)c2)c1
not fulfilled

Reported growth inhibition at or above 90%? O=S(=O)(c1ccc(Cl)cc1)N1CCN(C(=S)NCc2ccco2)CC1
fulfilled

Continuing:
growth inhibition >= 90% for COc1cccc(-c2cc3c(Nc4cccnc4)nccc3[nH]2)c1 ?
fulfilled

Reported growth inhibition at or above 90%? Cc1cc(C)n(-c2ccc(NC(=O)C3CCN(Cc4cnc(C)s4)CC3)cc2)n1
not fulfilled

* * *

Test system: Plasmodium falciparum NF54
Assay: growth inhibition relative to untreated control; higher = more inhibition
Conditions: 1 µM; minimal medium (MM); 72 h
PROPERTY: growth inhibition

Before answering, review these 2 worked examples.
Recorded growth inhibition (compound O=C(Nc1c(O)cccc1-c1nc2c(C(=O)O)cccc2o1)c1cc(-c2ccccc2)on1 ): < 0%

Given item NS(=O)(=O)c1cncc(-c2ccc3nccc(-c4cn[nH]c4)c3n2)c1 , the value recorded as its growth inhibition is > 100%

Alright, here's another compound for you.
Record O=C(Nc1ccc(N2CCNCC2)cc1)c1ccn2ncc(-c3cccc(Cl)c3)c2n1 , field growth inhibition: > 100%

* * *

Tested on: Plasmodium falciparum NF54
Test: growth inhibition relative to untreated control; higher = more inhibition
Settings: 1 µM; MM + chorismate end-products (CM screening medium); 72 h
PROPERTY: growth inhibition (%)
Answers are plain numbers, in %.

Some solved entries appear below for comparison.
Form: item Nc1ccc2ncnc(Nc3ccc(OCc4cccc(F)c4)c(Cl)c3)c2c1 ; test system Plasmodium falciparum NF54; growth inhibition: 61.9

# growth inhibition measured on Plasmodium falciparum NF54 for item CC(C)=CCC/C(C)=C/CNCCNC1C2CC3CC(C2)CC1C3 (stereo unspecified) = 88.5

// assay Plasmodium falciparum NF54, entry COc1ccc(-c2nc(-c3cccc(NC(=O)Cc4ccc(F)cc4)c3)no2)cc1OC , growth inhibition value = 46.5

// moving on: another record for growth inhibition
# growth inhibition measured on Plasmodium falciparum NF54 for item c1ccc(Oc2ccc(-c3cc(N4CCNCC4)[nH]n3)cc2)cc1 = 32.1

* * *

Test system: Plasmodium falciparum NF54
Assay: growth inhibition relative to untreated control; higher = more inhibition
Conditions: 1 µM; minimal medium (MM); 72 h
Assign growth inhibition to each entry below.

Some solved cases for reference:
For O=C(Nc1cccc(-c2ccc(NCCCN3CCCC3)nc2)c1)c1ccccc1 the compound record lists growth inhibition as > 100%

For reference, reported growth inhibition for CS(=O)(=O)N1CCC(Cn2nc(Cc3cccc4ccccc34)c3c(N)ncnc32)CC1 stands at < 0%

Attention now turns to another entry.
Measured growth inhibition of CCCCS(=O)(=O)Nc1ccc2cnn(C)c2c1 : < 0%

* * *

Tested on: Plasmodium falciparum NF54
Experiment: growth inhibition relative to untreated control; higher = more inhibition
Conditions: 1 µM; MM + chorismate end-products (CM screening medium); 72 h
PROPERTY: growth inhibition (%)
Give bare numbers, in %.

Worked examples follow.
Recorded result, O=C(C(Cc1c[nH]c2ccccc12)NS(=O)(=O)c1ccc(Cl)cc1)N1CCCCC1 (centres undefined) , growth inhibition: 58

Quick note, growth inhibition for CCOC(=O)NC(=O)c1ccsc1NC(=O)c1nc2ccccc2s1 landed at 36.1

compound C[C@]1(O)C[C@@H](c2nc(-c3ccc4ccc(-c5ccccc5)nc4c3)c3c(N)nccn32)C1 , growth inhibition observed: 35

Value of growth inhibition reported for the compound c1ccc(-c2nc(NC3CCCCC3)cc(C3CC3)n2)nc1 is 80.6

The recorded growth inhibition for N=C(N)c1ccc(OCCCCCOc2ccc(C(=N)N)cc2)cc1 is 98.6

compound COc1ccccc1OCCCCn1c(C2CC2)nc2ccccc21 , growth inhibition observed: 37

# return growth inhibition for each item in the list
1. Cc1cc(C(=O)Nc2ccc(-c3ccccc3)cc2)no1
2. Cc1cc(NC(=O)c2ccc(S(=O)(=O)N(Cc3ccccc3)C(C)C)cc2)no1
3. CN(C(=O)c1cc2c(-c3cncnc3)cccc2[nH]1)c1ccccc1

1: 96.4; 2: 95.5; 3: 48.7
